experiment: Solubility in distilled water; type: physicochemical; conditions: no polymer, read-out: Löslichkeit in destilliertem Wasser
Exercise: state measured log10 of solubility for each of the compounds provided.
// stored as log10 of solubility expressed in µg/mL

# Compound, log10 of solubility
measured = [
    ("CCCCC(CC)COC(=O)c1ccc(Nc2nc(Nc3ccc(C(=O)OCC(CC)CCCC)cc3)nc(Nc3ccc(C(=O)OCC(CC)CCCC)cc3)n2)cc1 (centres unmarked)", -2.15),
    ("CCOC(=O)/C(Cl)=C/c1cc(N2C(=O)C3=C(CCCC3)C2=O)ccc1Cl", -1.24),
    ("COC(=O)N(OC)c1ccccc1COc1ccn(-c2ccc(Cl)cc2)n1", 0.38),
    ("CC1(C)CCC(Cc2ccc(Cl)cc2)C1(O)Cn1cncn1 (centres unmarked)", 1.18),
]

// next item, log10 of solubility requested
Record request: log10 of solubility value, item CN1C(C(=O)Nc2ccccn2)=C(O)c2ccccc2S1(=O)=O 1.36
